Values were extracted from PubChem BioAssay (NCI).

System: HCT-116 colon
experiment_notes: NCI-60 one-dose screen, 48 h
cond: 10 µM unless noted
Compounds without any hit were thinned out: in the full panel of roughly 83,000, 20% have a hit. The source made the active and inactive calls. The calls were made as follows: active = growth percent below 10; inactive = the rest.
Field 'call' accepts active, inactive

Query string: Assay result, entry COc1ccc2c(c1)oc1c3[nH]c4ccccc4c3c3c(c21)C(=O)N(O)C3=O — outcome?
Result string: inactive

Query string: Returns: the outcome recorded for O=c1c2ccccc2nc(COc2ccccc2)n1/N=C/C=C/c1ccccc1 in this assay.
Result string: inactive

Query string: State the result this test recorded for C=CCn1c(SCC(=O)Nc2cccc(C(=O)/C=C/c3ccccc3)c2)nc2ccccc2c1=O .
Result string: active

Query string: Answer briefly: the call reported for O=C(CSc1ccc(-c2nc3ccccc3[nH]2)cn1)N1CCN(c2ccccc2F)CC1 in this assay.
Result string: inactive

Query string: Please let me know the test result on file for CCN(CC)CCN1C(=O)c2c(c3c4cc(Br)ccc4[nH]c3c3ccc4ccccc4c23)C1=O .
Result string: active

Query string: Identify the outcome logged in this assay for the compound shown: CN1CCN(c2ccc(C(=O)/C=C/c3ccc(Cl)c(C(F)(F)F)c3)cc2)CC1
Result string: inactive

###

Test system: OVCAR-8 ovarian
experiment_notes: NCI-60 one-dose screen, 48 h (100 = growth as untreated, 0 = no growth, -100 = all killed)
cond: 10 µM unless noted
Compounds without any hit were thinned out: in the full panel of roughly 83,000, 20% have a hit. The source made the active and inactive calls. The calls were made as follows: active = growth percent below 10; inactive = the rest.
# growth annotations

molecular_string	recorded_measurement
Fc1ccccc1/C=C(/C1=NCCN1)n1cnc2ccccc21	99.6% (inactive)

Reported growth of C=C(C)[C@@H]1CC[C@]2(C(=O)NCCCN(CCC#N)CCC#N)CC[C@]3(C)[C@H](CC[C@@H]4[C@@]5(C)CCC(=O)C(C)(C)[C@@H]5CC[C@]43C)[C@@H]12 : 105% (inactive)

// growth value for C[C@H]1[C@H](C)CC[C@]2(COC(=O)c3cccnc3)CC[C@]3(C)C(=CC[C@@H]4[C@@]5(C)CCCNC(C)(C)[C@@H]5CC[C@]43C)[C@H]12 : 86.2% (inactive)

###

System: SNB-75 CNS
experiment_notes: NCI-60 one-dose screen, 48 h (100 = growth as untreated, 0 = no growth, -100 = all killed)
cond: 10 µM unless noted
Compounds without any hit were thinned out: in the full panel of roughly 83,000, 20% have a hit.
Rule: growth below 70% gives true (1). Equal to or above 70% gives false (0).

Worked examples, 3 molecules total:
molecule	class
CCOC(=O)c1c(NC(=O)c2ccc(F)cc2F)sc2c1CCC(=O)C2	false (0)
C[C@@H]1C[C@H]2C(=O)OCC(NC(=O)[C@H](Cc3cc(F)cc(F)c3)NC(=O)Nc3ccc(Cl)cc3F)C(=O)N3CCC[C@H]3C(=O)N3CCCC[C@H]3C(=O)N[C@@H](C)C(=O)N2C1 (stereo partly drawn)	true (1)
O=c1c2c(O)cccc2oc2c3c(cc(O)c12)O[C@H]1OC=C[C@@H]31	false (0)

Query string: Does the reported growth of C#C[C@]1(O)CC[C@H]2[C@@H]3CC=C4c5sc(-c6ccccn6)nc5CC[C@]4(C)[C@H]3CC[C@@]21C stay below 70%?
Result string: true (1)

Query string: Problem: For the molecule COc1ccc(-c2ccc3c4c(cccc24)C(=O)N(N2C(=O)c4cccc5cccc(c45)C2=O)C3=O)cc1 , is growth under 70%?
Result string: false (0)

###

System: MDA-MB-231 breast
experiment_notes: NCI-60 one-dose screen, 48 h (100 = growth as untreated, 0 = no growth, -100 = all killed)
cond: 10 µM unless noted
About 83,000 compounds went through this panel and 20% of them were active in at least one assay; those are over-represented in the sample as a whole. The source made the active and inactive calls. How the source made its calls: active means growth percent below 10; inactive means the rest.
molecules and their reported growth

> print(dat)
                                   molecule  recorded.measurement
1  Cc1[nH]nc2ccc(-c3nc4cnc(N5CCN(C)CC5)cn4c3Nc3ccc(F)cc3Br)cc12        8.94% (active)

Please fill in: growth reported for CCCC(=O)NC(c1cccnc1)c1cc(Cl)c2cccnc2c1O (centres undefined) = 45.1% (inactive)

growth in this record for COc1ccc(CN2C(=O)/C(=C/c3nc(CO)cs3)SC2=S)cc1 : 79.5% (inactive)

So for C=C1C(=O)O[C@@H]2C[C@@H](C)[C@H](OC)CC(=O)[C@](C)(OC(C)=O)C[C@H](OC(=O)/C(C)=C\C)[C@@H]12 , the logged growth turned out to be 36.7% (inactive)

So for COc1ccc(/C=N/Nc2nc(N/N=C/c3ccc(OC)cc3O)nc(N3CCOCC3)n2)c(O)c1 , the logged growth turned out to be 70.3% (inactive)

Sure, the documented growth for NS(=O)(=O)Oc1ccc2nc(Nc3ccc(F)c(F)c3)ccc2c1 is 94.3% (inactive)

###

System: HCT-116 colon
experiment_notes: NCI-60 one-dose screen, 48 h
cond: 10 µM unless noted
The panel holds about 83,000 compounds, 20% with a hit somewhere; the sample as a whole holds those more often. Calls of active or inactive are those of the source. How the source made its calls: active means growth percent below 10; inactive means the rest.
Returns: one label drawn from class 1 (active), class 0 (inactive)

Known results for compounds:
compound	class
C[C@@H]1C[C@H]2C(=O)OCC(NC(=O)[C@H](Cc3cc(F)cc(F)c3)NC(=O)Nc3ccc(Cl)cc3F)C(=O)N3CCC[C@H]3C(=O)N3CCCC[C@H]3C(=O)N[C@@H](C)C(=O)N2C1 (stereo not given in full)	class 1
Cc1nn(-c2ccccc2)c2nc(CCl)[nH]c(=O)c12	class 0
COc1cnc2c(c1)C(=O)c1c-2n(CCCn2ccnc2)c(=O)c2cc(OC)c(OC)cc12	class 1
CS(=O)(=O)c1ccc(-c2nn(-c3ccccc3)cc2/C=C/C(=O)c2ccc(Br)cc2)cc1	class 0

Could you now look at the following compound, please?
Query string: Please state the recorded outcome for this compound: COc1ccc(CN2C(=O)/C(=C/c3nc(CO)cs3)SC2=S)cc1
Result string: class 0

###

System: OVCAR-3 ovarian
experiment_notes: NCI-60 one-dose screen, 48 h
cond: 10 µM unless noted
Compounds without any hit were thinned out: in the full panel of roughly 83,000, 20% have a hit. Calls of active or inactive are those of the source. Rule for the calls: active = growth percent below 10; inactive = the rest.
The reply should name one outcome from YES (active), NO (inactive)

compound	class
O=S(=O)(NCCCNc1nccc(-n2cnc3ccccc32)n1)c1ccc(F)cc1	NO
O=C(/C=C/c1cccc(O)c1)c1ccc(O)cc1	NO
O=C(NNc1nc2cc(F)cc(F)c2n2cccc12)c1ccncn1	YES

Query string: Give the logged outcome of this assay for the following compound: CCOc1ccc2nc(NC(=O)Nc3ccccc3C)sc2c1
Result string: NO

Query string: Query: recorded result category for NC(=O)C(=Cc1ccc(Cl)cc1)C(N)=O in this test
Result string: NO

Query string: // param item: CC1(C)CC[C@]2(C(=O)O)CC[C@]3(C)C(=CCC4[C@@]5(C)C[C@@H](O)[C@@H]6OC(c7ccccc7O)OC[C@@]6(C)C5CC[C@]43C)C2C1 (stereo not given in full) ; yields the recorded call
Result string: NO

Query string: What is the recorded call for this compound in the test? NC(=O)c1c(NC(=O)c2cccc(C(F)(F)F)c2F)sc2c1CCC(=O)C2
Result string: NO

Query string: What outcome does the record of this test show for COc1cc(C2=NN(C(C)=O)C(c3ccc(N4CCOCC4)cc3)C2)cc(OC)c1OC (stereo not given) ?
Result string: NO

Query string: Recorded call for CCCCOc1ccc(S(=O)(=O)N2CCN(c3nccc(N4CCOCC4)n3)CC2)cc1 ?
Result string: NO

Query string: I'd appreciate the recorded outcome for COc1ccc(Cn2cc3c(c2-c2ccccc2)CCCc2cnoc2-3)cc1 from this test.
Result string: NO

###

Test system: SK-MEL-2 melanoma
experiment_notes: NCI-60 one-dose screen, 48 h
cond: 10 µM unless noted
Description: Growth inhibition of the SK-MEL-2 human tumor cell line is measured as a screen for anti-cancer activity. Cells are grown in 96 well plates and exposed to the test compound for 48 hours. Compounds are tested at a single concentration, which is 10^-5 M for most compounds. The reported endpoint is percent growth (GI% or GIPRCNT), where numbers from 0 - 100% represent growth inhibition, and numbers from -100% - 0 represent cell death. For example, a value of 40 represents 60% growth inhibition. […]
The panel holds about 83,000 compounds, 20% with a hit somewhere; the sample as a whole holds those more often. Calls of active or inactive are those of the source. How the source made its calls: active means growth percent below 10; inactive means the rest.
Result category, one only: class 1 = active, class 0 = inactive

Completed entries (count: 8):
> print(dat)
                                   compound    class
1  O=C(CCCCCCN1CC(=O)N2[C@@H](c3cccc(Br)c3)c3[nH]c4ccccc4c3C[C@H]2C1=O)NO  class 0
2  Cc1ccc(-c2nnc3sc(C4=Cc5ccccc5OC=C4)nn23)cc1  class 0
3  COc1ccc(-c2nc(SCC(C)C)nc(N/N=C\c3cccc([N+](=O)[O-])c3)c2C#N)cc1  class 0
4  CN1C(=O)N(C)C2Nn3c(s/c(=C\c4ccccn4)c3=O)=NC21 (centres undefined)  class 0
5  Nc1ccc(-c2nnc(SCc3ccc(O)c4ncccc34)o2)cc1  class 1
6  O=C1c2c(c3c4cc(O)ccc4oc3c3[nH]c4ccccc4c23)C(=O)N1O  class 1
7  O=C(CCCCCCN1CC(=O)N2[C@@H](c3cccc(Cl)c3)c3[nH]c4ccccc4c3C[C@H]2C1=O)NO  class 0
8  C#C[C@]1(O)CC[C@H]2[C@@H]3CC=C4c5sc(C6CC6)nc5CC[C@]4(C)[C@H]3CC[C@@]21C  class 0

As a next step, examine the compound that follows.
Query string: I would be grateful if you could indicate the recorded call for O=C(NNc1nc2cc(F)cc(F)c2n2cccc12)c1ncccn1 .
Result string: class 0
